- Experimental system: furin, P09958;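 further: purified furin at 1:10 enzyme:substrate in 50 mM HEPES pH 7.5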
- Sequence (P09958 whole entry): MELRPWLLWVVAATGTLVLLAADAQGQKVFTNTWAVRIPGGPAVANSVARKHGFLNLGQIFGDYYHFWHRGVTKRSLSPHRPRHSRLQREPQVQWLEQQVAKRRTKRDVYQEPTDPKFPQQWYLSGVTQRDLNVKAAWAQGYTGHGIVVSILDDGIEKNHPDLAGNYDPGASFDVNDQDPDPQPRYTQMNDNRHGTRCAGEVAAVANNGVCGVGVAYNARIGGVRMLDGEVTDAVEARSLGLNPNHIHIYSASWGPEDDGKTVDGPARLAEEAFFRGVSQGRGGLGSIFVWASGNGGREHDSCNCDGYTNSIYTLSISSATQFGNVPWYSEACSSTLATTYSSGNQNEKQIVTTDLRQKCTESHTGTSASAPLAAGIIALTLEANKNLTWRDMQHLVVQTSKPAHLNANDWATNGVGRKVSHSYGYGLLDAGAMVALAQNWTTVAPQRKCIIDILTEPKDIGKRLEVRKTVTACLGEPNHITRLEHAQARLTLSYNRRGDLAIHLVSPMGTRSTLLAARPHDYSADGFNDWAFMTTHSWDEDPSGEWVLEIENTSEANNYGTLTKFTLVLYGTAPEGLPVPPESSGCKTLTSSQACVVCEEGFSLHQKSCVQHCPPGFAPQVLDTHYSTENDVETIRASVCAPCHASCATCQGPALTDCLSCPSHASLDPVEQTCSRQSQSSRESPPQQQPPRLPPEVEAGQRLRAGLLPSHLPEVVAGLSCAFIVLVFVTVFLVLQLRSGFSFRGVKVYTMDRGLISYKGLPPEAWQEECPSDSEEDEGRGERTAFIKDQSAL
- Protocol details: furin cleavage Z-score vs untreated control; higher = more cleavage, active = 3.5 or more, inactive = 1 or less, 8 variable residues between constant flanks
- Experimental parameters: 15 min
The other results are listed elsewhere or left out. No count for the full screen is at hand.
Outcomes: true (1) for active, false (0) for inactive

> print(dat)
               monomer.sequence  category.label
1  CAGSQWEKRSAGNASASA [FS-1129]       false (0)
2    CAKKMRNKRNAGNASASA [FS-42]        true (1)
3  CAFIGREKRSAGNASASA [FS-1323]        true (1)
4   CASTGCSAHLAGNASASA [HC2516]       false (0)
5    CAYDAGCAWYAGNASASA [HC921]       false (0)
6  CADPMLEKRSAGNASASA [FS-1517]       false (0)
7   CALYREFDEMAGNASASA [HC1011]       false (0)
